# Experiment Description: in vivo
# Design: species or system BALB/C nu/nu mice
# Condition Context: BALB/C nu/nu, mouse, iv, 40 pmol, total radioactivity, GI (gastrointestinal tract, GIT) uptake
Starred links: 1 amine or outer side, 2 acyl side, 3 side chain; linkers in the order of their positions; H or OH if unused. Non-standard residues stand in square brackets, D forms with d. Residues, ends and D or L forms follow the SMILES beside them. *: point of attachment. DOTAGA = O=C(O)CN1CCN(CC(=O)O)CCN(C(CCC(=O)*)C(=O)O)CCN(CC(=O)O)CC1; Sta = CC(C)C[C@H](N)[C@@H](O)CC(=O)O; X1 = O=C(CN1CCC(N[*:1])CC1)[*:2]; Sar = CNCC(=O)O
Observation Type: tissue uptake dose at 4 h (%ID)
Your answer is read as %ID, so omit the unit and give the number.

CC(C)C[C@H](NC(=O)C[C@H](O)[C@H](CC(C)C)NC(=O)[C@H](Cc1c[nH]cn1)NC(=O)CN(C)C(=O)[C@@H](NC(=O)[C@H](C)NC(=O)[C@H](Cc1c[nH]c2ccccc12)NC(=O)[C@H](CCC(N)=O)NC(=O)[C@@H](Cc1ccccc1)NC(=O)COCCOCCNC(=O)CCC(C(=O)O)N1CCN(CC(=O)O)CCN(CC(=O)O)CCN(CC(=O)O)CC1)C(C)C)C(N)=O (stereo partly shown) [[^111In]In-AU-RM26-M1, [^111In]In-DOTAGA-PEG2-[Sar^11]RM26, metal not drawn, reference compound] | 0.9
CC(C)C[C@H](NC(=O)C[C@H](O)[C@H](CC(C)C)NC(=O)[C@H](Cc1c[nH]cn1)NC(=O)CN(C)C(=O)[C@@H](NC(=O)[C@H](C)NC(=O)[C@H](Cc1c[nH]c2ccccc12)NC(=O)[C@H](CCC(N)=O)NC(=O)[C@@H](Cc1ccccc1)NC(=O)[C@H](CCCNC(=N)N)NC(=O)COCCOCCNC(=O)CCC(C(=O)O)N1CCN(CC(=O)O)CCN(CC(=O)O)CCN(CC(=O)O)CC1)C(C)C)C(N)=O (stereo partly shown) [[^111In]In-AU-RM26-M3, metal not drawn] | 1.3
CC(C)C[C@H](NC(=O)C[C@H](O)[C@H](CC(C)C)NC(=O)[C@H](Cc1c[nH]cn1)NC(=O)CN(C)C(=O)[C@@H](NC(=O)[C@H](C)NC(=O)[C@H](Cc1c[nH]c2ccccc12)NC(=O)[C@H](CCC(N)=O)NC(=O)[C@@H](Cc1ccccc1)NC(=O)CN1CCC(NC(=O)COCCOCCNC(=O)CCC(C(=O)O)N2CCN(CC(=O)O)CCN(CC(=O)O)CCN(CC(=O)O)CC2)CC1)C(C)C)C(N)=O (stereo partly shown) [[^111In]In-AU-RM26-M2, metal not drawn] | 0.8

Now turn to the next compound.
What value of tissue uptake dose at 4 h has been reported for the following compound? CC(C)C[C@H](NC(=O)C[C@H](O)[C@H](CC(C)C)NC(=O)[C@H](Cc1c[nH]cn1)NC(=O)CN(C)C(=O)[C@@H](NC(=O)[C@H](C)NC(=O)[C@H](Cc1c[nH]c2ccccc12)NC(=O)[C@H](CCC(N)=O)NC(=O)[C@@H](Cc1ccccc1)NC(=O)CN1CCC(NC(=O)[C@H](CCCNC(=N)N)NC(=O)[C@H](CCCNC(=N)N)NC(=O)CCC(C(=O)O)N2CCN(CC(=O)O)CCN(CC(=O)O)CCN(CC(=O)O)CC2)CC1)C(C)C)C(N)=O (stereo partly drawn) [[^111In]In-AU-RM26-M4, metal not drawn] ({DOTAGA}-RR[X1][dF]QWAV[Sar]H[Sta]L-NH2)
1.4
